# assay: Oral bioavailability in mouse at 10 mg/kg
# Format: ADME, organism-based
# details: in vivo
// reported bioavailability per item
Record the value in %, omitting the unit from your answer.

smiles_code | output_unit | bioavailability
Cc1cc(NC(=O)[C@H](O)c2cc(F)cc(F)c2)ccc1-c1cnc(N)c(C(=O)NC(C)C)c1 | % | 49

I'd like to know its bioavailability. The molecule in question is CCc1cc(NC(=O)[C@H](O)c2cc(F)cc(F)c2)ccc1-c1cnc(N)c(C(=O)NC(C)C)c1
70

* * *

Recorded measurements of efflux ratio, one per entry
# assay: Efflux ratio of apparent permeability in human Caco-2 cells
# Assay type: ADME, cell-based
Just the number.

# example entries with known answers
smiles_code | efflux ratio
CC(C)NC(=O)c1cc(-c2ccc(NC(=O)[C@H](O)c3cc(F)cc(F)c3)cc2Cl)cnc1N | 2.5
CCNC(=O)c1cc(-c2ccc(NC(=O)[C@H](O)c3cc(F)cc(F)c3)cc2C)cnc1N | 3.3
Cc1cc(NC(=O)[C@H](O)c2cc(F)cc(F)c2)ccc1-c1cnc(N)c(C(=O)NC2CC2)c1 | 4.6
Cc1cc(NC(=O)[C@H](O)c2cc(F)cc(F)c2)ccc1-c1cnc(N)c(C(=O)NC(C)C)c1 | 2
Cc1cc(NC(=O)[C@H](O)c2cccc(Cl)c2)ccc1-c1cnc(N)c(C(=O)NC(C)C)c1 | 2.8

Then there is this molecule:
Dear colleague, I am looking for the recorded efflux ratio of the following molecule: CCc1cc(NC(=O)[C@H](O)c2cc(F)cc(F)c2)ccc1-c1cnc(N)c(C(=O)NC(C)C)c1
2.3
